# Measured on: Acetylcholinesterase (Electrophorus electricus)
# Sequence (O42275 whole entry): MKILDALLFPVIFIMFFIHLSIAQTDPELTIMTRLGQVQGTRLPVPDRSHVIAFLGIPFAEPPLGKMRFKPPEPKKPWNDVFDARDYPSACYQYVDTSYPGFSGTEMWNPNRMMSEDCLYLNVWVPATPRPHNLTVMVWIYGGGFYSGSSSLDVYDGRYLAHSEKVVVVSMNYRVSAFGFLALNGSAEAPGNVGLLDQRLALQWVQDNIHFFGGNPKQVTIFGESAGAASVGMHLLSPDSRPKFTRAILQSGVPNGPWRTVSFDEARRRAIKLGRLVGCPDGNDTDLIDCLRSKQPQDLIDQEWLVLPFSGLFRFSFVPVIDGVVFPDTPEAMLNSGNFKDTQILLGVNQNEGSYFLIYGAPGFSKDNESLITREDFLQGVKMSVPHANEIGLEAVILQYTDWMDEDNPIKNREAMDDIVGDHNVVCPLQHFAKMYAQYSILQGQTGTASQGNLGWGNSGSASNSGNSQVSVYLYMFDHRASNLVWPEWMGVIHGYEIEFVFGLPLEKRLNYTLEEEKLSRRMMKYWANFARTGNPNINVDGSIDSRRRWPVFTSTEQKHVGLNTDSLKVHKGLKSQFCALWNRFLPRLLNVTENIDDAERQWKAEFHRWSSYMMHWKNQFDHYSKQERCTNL
# Assay text: Inhibition of electric eel AChE
pIC50: −log10 of the molar value.
Known pIC50 of a selection of molecules
Endpoint label: pIC50

O=C(NCCC1CCN(Cc2ccccc2)CC1)c1ccc(Cl)cn1 :: 6.66
COc1cc(/C=C/C(=O)N(CCCC2CCN(Cc3ccccc3)CC2)CC(=O)Nc2c(C)cccc2Cl)ccc1O :: 7.53

Provenance of the data: ChEMBL document CHEMBL4265938
